Hello, the source for this data is ChEMBL document CHEMBL2218924, in case you need it.

Molecular target: Calcium/calmodulin-dependent protein kinase type II subunit delta (Homo sapiens) (UniProt Q13557)
Sequence (Q13557 whole entry): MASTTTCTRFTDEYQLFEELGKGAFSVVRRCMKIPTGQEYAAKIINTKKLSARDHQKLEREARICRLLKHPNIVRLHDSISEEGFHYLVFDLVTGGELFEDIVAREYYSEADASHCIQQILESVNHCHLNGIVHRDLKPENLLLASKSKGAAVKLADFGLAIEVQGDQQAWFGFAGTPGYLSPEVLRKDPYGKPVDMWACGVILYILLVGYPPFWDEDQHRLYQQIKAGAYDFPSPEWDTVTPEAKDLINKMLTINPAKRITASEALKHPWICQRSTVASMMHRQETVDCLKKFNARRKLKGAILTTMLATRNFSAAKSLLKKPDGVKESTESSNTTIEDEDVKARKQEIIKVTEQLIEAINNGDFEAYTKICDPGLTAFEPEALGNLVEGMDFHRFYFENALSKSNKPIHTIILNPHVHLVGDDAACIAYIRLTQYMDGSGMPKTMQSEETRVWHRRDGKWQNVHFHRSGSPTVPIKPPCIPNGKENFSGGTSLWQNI
Conditions: at 1 µM
Property name: residual activity (%)
Give a bare numeral; the unit % is implied.

Use these answered entries as a reference point.
Assign residual activity to the following record: CCC(=O)Nc1ccc2ncnc(Nc3cccc(Br)c3)c2c1
109

Assign residual activity to the following record: O=C1Nc2cc(Br)ccc2/C1=C1/Nc2ccccc2/C1=N\O
1

Assign residual activity to the following record: COc1ccc(C(=O)Nc2sc3c(c2C(N)=O)CCCC3)cc1OC
86

---
Assign residual activity to the following record: CO[C@@H]1[C@H](N(C)C(=O)c2ccccc2)C[C@H]2O[C@]1(C)n1c3ccccc3c3c4c(c5c6ccccc6n2c5c31)C(=O)NC4
5

Assign residual activity to the following record: O=C1NC(=O)c2cc(Nc3ccc(F)cc3)c(Nc3ccc(F)cc3)cc21
110

Assign residual activity to the following record: Oc1c2ccccc2c2c3c(cccc13)N=N2
43

Assign residual activity to the following record: NC(=O)c1ccc2[nH]c(-c3ccc(Oc4ccc(Cl)cc4)cc3)nc2c1
91

Assign residual activity to the following record: COc1cccc(-c2cc(=O)c3ccccc3o2)c1N
101

* * *

Form field: residual activity (one value per entry).
Molecular target: Serine/threonine-protein kinase ULK3 (Homo sapiens)
Details: at 10 µM
Answer format reminder: number followed by unit.

Assign residual activity to the following record: COc1cc2ncnc(Nc3ccc(NC(=O)c4ccccc4)cc3)c2cc1OC
69%

Assign residual activity to the following record: Nc1cccc(-c2cc3c(Oc4cccc(O)c4)ncnc3[nH]2)c1
6%

Assign residual activity to the following record: O=C1Nc2ccc(Br)cc2/C1=C\c1cc2c([nH]1)CCCC2
55%

---
Assign residual activity to the following record: COc1ccc(OC)c2c(=S)c3ccccc3[nH]c12
101%

Assign residual activity to the following record: CO[C@H]1[C@@H](OC)C[C@H](C)[C@@H](OC)C2=CC(=O)C=C(NC(=O)/C(C)=C/C=C/[C@H](OC)[C@@H](OC(N)=O)/C(C)=C/[C@@H]1C)C2=O
92%

Assign residual activity to the following record: O=C1NC(=O)/C(=C\c2ccc3nccnc3c2)S1
63%

Assign residual activity to the following record: N#CCCc1ccc2c(c1)-c1[nH]c3ccc([N+](=O)[O-])cc3c1CC(=O)N2
6%

Assign residual activity to the following record: O=c1cc(-c2cccc3c2Sc2ccccc2S3)oc(N2CCOCC2)c1
96%

* * *

Form field: residual activity (one value per entry).
Molecular target: RAC-gamma serine/threonine-protein kinase (Homo sapiens)
Conditions: at 10 µM
Give a bare numeral; the unit % is implied.

Assign residual activity to the following record: Cn1nc2c3c(cccc31)C(=O)c1ccccc1-2
91

Assign residual activity to the following record: COc1ccc(S(=O)(=O)N(CCO)c2ccccc2CN(C)C/C=C/c2ccc(Cl)cc2)cc1
56

Assign residual activity to the following record: CN(C)c1ccc(/C=C2\C(=O)Nc3ccccc32)cc1
100

Assign residual activity to the following record: Cn1cnc2cc3c(Nc4cccc(Br)c4)ncnc3cc21
96

Assign residual activity to the following record: Cc1ccc(S(=O)(=O)/C=C/C#N)cc1
85

The record that follows has no residual activity shown yet.
Assign residual activity to the following record: Nc1ccc2ncnc(NCCc3ccc(Oc4ccccc4)cc3)c2c1
76

* * *

Target: Serine/threonine-protein kinase PLK1 (Homo sapiens)
Settings: at 10 µM
Form field: residual activity (one value per entry).
Give a bare numeral; the unit % is implied.

Use these answered entries as a reference point.
Report measured residual activity on Serine/threonine-protein kinase PLK1 (Homo sapiens); entry: O=C1NC(=O)c2c1c1c3ccccc3[nH]c1c1[nH]c3cc(Br)ccc3c21
90

Report measured residual activity on Serine/threonine-protein kinase PLK1 (Homo sapiens); entry: CC[n+]1c(/C=C/N(C)c2ccccc2)n(-c2ccccc2)c2ccc(-c3nc4ccccc4s3)cc21
90

Report measured residual activity on Serine/threonine-protein kinase PLK1 (Homo sapiens); entry: O=[N+]([O-])c1ccc(-c2nc(-c3ccc(F)cc3)c(-c3ccncc3)[nH]2)cc1
80

Report measured residual activity on Serine/threonine-protein kinase PLK1 (Homo sapiens); entry: Cc1cncc2cccc(S(=O)(=O)N3CCCN(C(=O)CN)C[C@H]3C)c12
59

Report measured residual activity on Serine/threonine-protein kinase PLK1 (Homo sapiens); entry: COc1cc2ncnc(N3CCN(C(=O)Nc4ccc(Oc5ccccc5)cc4)CC3)c2cc1OC
61

---
Report measured residual activity on Serine/threonine-protein kinase PLK1 (Homo sapiens); entry: COc1cccc(-c2cc(=O)c3ccccc3o2)c1N
102

Report measured residual activity on Serine/threonine-protein kinase PLK1 (Homo sapiens); entry: O=C1NC(=O)/C(=C/c2ccc3c(c2)OC(F)(F)O3)S1
61

Report measured residual activity on Serine/threonine-protein kinase PLK1 (Homo sapiens); entry: c1ccc2c(-c3ccncc3)c[nH]c2c1
65

Report measured residual activity on Serine/threonine-protein kinase PLK1 (Homo sapiens); entry: O=C1c2ccccc2-[n+]2ccc3c([nH]c4ccccc43)c21
74

Report measured residual activity on Serine/threonine-protein kinase PLK1 (Homo sapiens); entry: Oc1c2ccccc2c2c3c(cccc13)N=N2
64

Report measured residual activity on Serine/threonine-protein kinase PLK1 (Homo sapiens); entry: CC(C)n1cnc2c(NCc3ccccc3)nc(NCCCO)nc21
52

* * *

Molecular target: CDK9/cyclin T1 (Homo sapiens) (UniProt O60563+P50750)
Conditions: at 10 µM
Property name: residual activity (%)
Give a bare numeral; the unit % is implied.

Assign residual activity to the following record: Cc1ccc(S(=O)(=O)/C=C/C#N)cc1
87

---
Assign residual activity to the following record: O=C(O)c1ccc2c3c1cccc3c(=O)n1c3ccccc3nc21
30

Assign residual activity to the following record: CCN(CC)CCCCN1c2ccccc2Oc2ccc(Cl)cc21
108

Assign residual activity to the following record: CC[n+]1c(/C=C/N(C)c2ccccc2)n(-c2ccccc2)c2ccc(-c3nc4ccccc4s3)cc21
125

Assign residual activity to the following record: CC(=O)c1ccc(N2CCOCC2)cc1O
74

Assign residual activity to the following record: Cc1cc(Nc2nc(-c3ccccc3)nc3ccccc23)n[nH]1
29

* * *

Form field: residual activity (one value per entry).
Target: Death-associated protein kinase 1 (Homo sapiens) (UniProt P53355)
Sequence (P53355 whole entry, looked up): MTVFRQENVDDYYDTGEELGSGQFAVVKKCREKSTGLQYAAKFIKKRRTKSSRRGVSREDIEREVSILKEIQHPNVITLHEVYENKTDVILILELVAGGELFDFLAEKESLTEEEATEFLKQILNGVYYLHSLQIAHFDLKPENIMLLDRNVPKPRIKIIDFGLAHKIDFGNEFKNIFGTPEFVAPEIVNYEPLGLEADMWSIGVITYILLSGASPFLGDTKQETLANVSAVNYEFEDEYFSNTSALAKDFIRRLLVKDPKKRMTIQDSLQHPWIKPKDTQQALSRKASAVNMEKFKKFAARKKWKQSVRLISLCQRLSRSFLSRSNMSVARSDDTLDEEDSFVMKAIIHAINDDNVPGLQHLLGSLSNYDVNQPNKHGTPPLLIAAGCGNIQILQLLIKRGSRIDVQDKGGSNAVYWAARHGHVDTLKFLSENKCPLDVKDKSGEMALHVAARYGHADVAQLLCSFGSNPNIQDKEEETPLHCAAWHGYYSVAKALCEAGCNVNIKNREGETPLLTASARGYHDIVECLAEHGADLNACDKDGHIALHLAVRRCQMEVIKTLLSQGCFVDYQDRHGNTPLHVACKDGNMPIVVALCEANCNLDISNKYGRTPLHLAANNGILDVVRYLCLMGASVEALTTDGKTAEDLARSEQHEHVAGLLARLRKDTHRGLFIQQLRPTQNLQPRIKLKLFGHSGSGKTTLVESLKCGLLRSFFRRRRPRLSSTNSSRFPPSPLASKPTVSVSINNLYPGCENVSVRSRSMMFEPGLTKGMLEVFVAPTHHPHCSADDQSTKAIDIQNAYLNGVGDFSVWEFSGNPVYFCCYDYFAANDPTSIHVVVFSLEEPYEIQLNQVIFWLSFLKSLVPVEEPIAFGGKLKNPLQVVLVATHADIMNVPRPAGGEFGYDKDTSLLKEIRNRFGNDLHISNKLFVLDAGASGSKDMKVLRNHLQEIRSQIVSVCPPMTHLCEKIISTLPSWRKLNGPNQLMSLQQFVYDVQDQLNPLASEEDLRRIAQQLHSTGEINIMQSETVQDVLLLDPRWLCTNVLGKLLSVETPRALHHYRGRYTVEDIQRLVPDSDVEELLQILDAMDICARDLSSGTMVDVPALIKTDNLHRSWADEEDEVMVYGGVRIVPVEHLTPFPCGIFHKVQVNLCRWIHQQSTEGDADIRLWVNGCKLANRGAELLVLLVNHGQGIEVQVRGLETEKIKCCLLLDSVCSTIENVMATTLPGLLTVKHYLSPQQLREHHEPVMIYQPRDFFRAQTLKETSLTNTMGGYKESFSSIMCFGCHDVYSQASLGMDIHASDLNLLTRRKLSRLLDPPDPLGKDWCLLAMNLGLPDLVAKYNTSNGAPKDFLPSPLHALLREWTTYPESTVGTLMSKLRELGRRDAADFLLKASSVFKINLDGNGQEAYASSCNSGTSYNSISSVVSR
Conditions: at 10 µM
Give a bare numeral; the unit % is implied.

Use these answered entries as a reference point.
Assign residual activity to the following record: O=C1NC(=O)c2c1c1c3ccccc3[nH]c1c1[nH]c3cc(Br)ccc3c21
92

Assign residual activity to the following record: CO[C@@H]1[C@H](N(C)C(=O)c2ccccc2)C[C@H]2O[C@]1(C)n1c3ccccc3c3c4c(c5c6ccccc6n2c5c31)C(=O)NC4
72

Assign residual activity to the following record: COc1cccc(-c2cc(=O)c3ccccc3o2)c1N
90

Assign residual activity to the following record: COc1ccc(OC)c2c(=S)c3ccccc3[nH]c12
93

---
Assign residual activity to the following record: Cc1nc2cc3nc(-c4cccs4)cnc3cc2n1C
86

Assign residual activity to the following record: Nc1ccc2ncnc(NCCc3ccc(Oc4ccccc4)cc3)c2c1
75

Assign residual activity to the following record: O=C1c2ccccc2-[n+]2ccc3c([nH]c4ccccc43)c21
84

* * *

Biological target: SRSF protein kinase 3 (Homo sapiens) (UniProt Q9UPE1)
Sequence (Q9UPE1 whole entry): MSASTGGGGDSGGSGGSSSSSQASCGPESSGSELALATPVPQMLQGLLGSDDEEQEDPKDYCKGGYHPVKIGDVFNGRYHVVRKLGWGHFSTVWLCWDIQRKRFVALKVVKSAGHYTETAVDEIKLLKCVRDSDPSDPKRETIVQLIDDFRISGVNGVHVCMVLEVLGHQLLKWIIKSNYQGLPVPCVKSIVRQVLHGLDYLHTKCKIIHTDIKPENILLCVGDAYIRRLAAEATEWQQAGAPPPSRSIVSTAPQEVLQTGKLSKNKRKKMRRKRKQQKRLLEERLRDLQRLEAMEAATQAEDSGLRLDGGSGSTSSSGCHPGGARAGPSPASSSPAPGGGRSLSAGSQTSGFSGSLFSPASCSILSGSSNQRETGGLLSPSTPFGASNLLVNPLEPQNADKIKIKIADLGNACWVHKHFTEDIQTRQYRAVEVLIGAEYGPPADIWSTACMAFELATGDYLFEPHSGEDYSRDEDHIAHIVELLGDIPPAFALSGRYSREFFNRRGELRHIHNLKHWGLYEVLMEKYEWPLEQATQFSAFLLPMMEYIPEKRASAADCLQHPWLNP
Conditions: at 10 µM
Description: Millipore: Percentage of residual kinase activity of SRPK3 at 10uM relative to control. Control inhibitor: Phosphoric acid* at 0.3uM. Buffer: 8 mM MOPS pH 7.0, 0.2 mM EDTA
Property name: residual activity (%)
Give a bare numeral; the unit % is implied.

Use these answered entries as a reference point.
Assign residual activity to the following record: O=c1c2ccccc2[nH]c(=S)n1CCN1CCC(=C(c2ccc(F)cc2)c2ccc(F)cc2)CC1
89

Assign residual activity to the following record: Oc1c2ccccc2c2c3c(cccc13)N=N2
82

Assign residual activity to the following record: Cn1cnc2cc3c(Nc4cccc(Br)c4)ncnc3cc21
81

Assign residual activity to the following record: O=C1Nc2ccccc2/C1=C1/Nc2ccccc2/C1=N\OCCC(O)CO (stereo not given)
42

Assign residual activity to the following record: Cc1nc2cc3nc(-c4cccs4)cnc3cc2n1C
88

Assign residual activity to the following record: CC(=O)O/N=C1\C(=C2\C(=O)Nc3cc(Br)ccc32)Nc2ccccc21
102

Assign residual activity to the following record: Cc1ccc(S(=O)(=O)/C=C/C#N)cc1
102

Assign residual activity to the following record: CO[C@@H]1[C@H](N(C)C(=O)c2ccccc2)C[C@H]2O[C@]1(C)n1c3ccccc3c3c4c(c5c6ccccc6n2c5c31)C(=O)NC4
77

---
Assign residual activity to the following record: Cc1cc2ncc(-c3ccccc3)nc2cc1C
87

Assign residual activity to the following record: COc1ccc(S(=O)(=O)N(CCO)c2ccccc2CN(C)C/C=C/c2ccc(Cl)cc2)cc1
104

* * *

Target: Muscle, skeletal receptor tyrosine-protein kinase (Homo sapiens) (UniProt O15146)
Sequence (O15146 whole entry): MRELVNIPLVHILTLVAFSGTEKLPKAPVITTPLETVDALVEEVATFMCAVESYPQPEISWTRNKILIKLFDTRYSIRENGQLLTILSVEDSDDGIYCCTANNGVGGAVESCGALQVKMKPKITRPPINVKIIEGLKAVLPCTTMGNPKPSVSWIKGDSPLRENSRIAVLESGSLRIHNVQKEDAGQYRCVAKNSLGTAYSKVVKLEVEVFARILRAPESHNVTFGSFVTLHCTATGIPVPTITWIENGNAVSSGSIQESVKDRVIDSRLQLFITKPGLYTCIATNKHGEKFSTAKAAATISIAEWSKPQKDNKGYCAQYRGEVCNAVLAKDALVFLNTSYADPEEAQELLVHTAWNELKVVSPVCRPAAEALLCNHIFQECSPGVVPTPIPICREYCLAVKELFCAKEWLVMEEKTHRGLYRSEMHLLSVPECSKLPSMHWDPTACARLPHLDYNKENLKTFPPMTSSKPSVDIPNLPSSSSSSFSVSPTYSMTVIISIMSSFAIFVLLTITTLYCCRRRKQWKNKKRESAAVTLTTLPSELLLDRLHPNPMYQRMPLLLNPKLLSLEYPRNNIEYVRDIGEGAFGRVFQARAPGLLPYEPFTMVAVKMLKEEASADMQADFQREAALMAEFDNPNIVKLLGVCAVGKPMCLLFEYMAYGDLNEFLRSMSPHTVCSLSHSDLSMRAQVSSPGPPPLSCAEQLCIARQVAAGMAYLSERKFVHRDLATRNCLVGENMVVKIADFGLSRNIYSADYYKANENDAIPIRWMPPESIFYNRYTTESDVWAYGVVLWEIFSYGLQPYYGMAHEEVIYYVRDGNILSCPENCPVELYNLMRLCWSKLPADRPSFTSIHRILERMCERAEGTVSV
Details: at 1 µM
Form field: residual activity (one value per entry).
Give a bare numeral; the unit % is implied.

Assign residual activity to the following record: Cc1cncc2cccc(S(=O)(=O)N3CCCN(C(=O)CN)C[C@H]3C)c12
90

Assign residual activity to the following record: CO[C@H]1C[C@@H]2CC[C@@H](C)[C@@](O)(O2)C(=O)C(=O)N2CCCC[C@H]2C(=O)O[C@H]([C@H](C)C[C@@H]2CC[C@@H](O)[C@H](OC)C2)CC(=O)[C@H](C)/C=C(\C)[C@@H](O)[C@@H](OC)C(=O)[C@H](C)C[C@H](C)/C=C/C=C/C=C/1C
87

Assign residual activity to the following record: CNc1cc2c(Nc3cccc(Br)c3)ncnc2cn1
105

Assign residual activity to the following record: O=c1cc(-c2cccc3c2Sc2ccccc2S3)oc(N2CCOCC2)c1
106

Assign residual activity to the following record: COc1ccc(C(=O)Nc2sc3c(c2C(N)=O)CCCC3)cc1OC
92

Assign residual activity to the following record: Nc1cccc(-c2cc3c(Oc4cccc(O)c4)ncnc3[nH]2)c1
73

Assign residual activity to the following record: Ic1cccc(CSc2nnc(-c3ccncc3)o2)c1
74

Assign residual activity to the following record: CCOc1cc2ncnc(Nc3cccc(Br)c3)c2cc1OCC
95

The record that follows has no residual activity shown yet.
Assign residual activity to the following record: O=C1NC(=O)/C(=C/c2ccc3c(c2)OC(F)(F)O3)S1
110
